Test system: K. pneumoniae 1228586
Type: cell-based, Klebsiella pneumoniae
REPORTED_CONDITIONS: 1228586, 20 h
Where a SMILES comes first, the peptide text is derived from it. [ ]: non-standard residue; d: D form. The star is where a group is joined. d(aIle) = CC[C@H](C)[C@@H](N)C(=O)O; dDab = NCC[C@@H](N)C(=O)O; Octanoyl = CCCCCCCC(=O)*; Dab = NCC[C@H](N)C(=O)O
Here, each record is paired with measured MIC data.

| COMPOUND | MIC, µg/mL |
| --- | --- |
| CCCCCCCC(=O)N[C@H](Cc1ccccc1)C(=O)N[C@H](CCN)C(=O)N[C@@H](C(=O)N[C@H](CO)C(=O)N[C@H](Cc1c[nH]c2ccccc12)C(=O)N[C@@H](CO)C(=O)N[C@@H](CO)C(=O)N[C@H](CCN)C(=O)N[C@@H](Cc1c[nH]c2ccccc12)C(=O)N[C@@H](CO)C(=O)N[C@H](C(=O)N[C@@H](C(=O)N[C@@H](CCN)C(=O)O)[C@@H](C)CC)C(C)C)[C@H](C)CC [Oct-TriD] (Octanoyl-[dF][dDab][dI][dS][dW]SS[dDab]WSV[d(aIle)][Dab]-OH) | 64 |
| CCCCCCCC(=O)N[C@@H](C(=O)N[C@H](CCN)C(=O)NCC(=O)N[C@H](CO)C(=O)N[C@H](Cc1c[nH]c2ccccc12)C(=O)N[C@@H](CO)C(=O)N[C@@H](CCN)C(=O)N[C@H](CCN)C(=O)N[C@@H](C)C(=O)N[C@@H](CCC(=O)O)C(=O)N[C@H](C(=O)N[C@@H](C(=O)N[C@@H](C)C(=O)O)[C@@H](C)CC)C(C)C)C(C)C [Oct-Ala9] (Octanoyl-[dV][dDab]G[dS][dW]S[Dab][dDab]AEV[d(aIle)]A-OH) | 8 |

---

Tested on: ATCC 25922
Assay type: cell-based, Enterococcus faecalis
REPORTED_CONDITIONS: ATCC 25922, 20 h
Description: All minimum inhibitory concentrations (MICs) were determined according to the Clinical and Standards Laboratory Institute (CLSI) guidelines. In brief, agar plates were inoculated from glycerol stocks and incubated overnight at 35 °C. Peptide DMSO stocks were dispensed into 96-well round-bottom plates using a TECAN D300e dispenser. […] Images of all plates were recorded, and MIC was assessed visually.
Where a SMILES comes first, the peptide text is derived from it. [ ]: non-standard residue; d: D form. The star is where a group is joined. d(aIle) = CC[C@H](C)[C@@H](N)C(=O)O; dDab = NCC[C@@H](N)C(=O)O; Octanoyl = CCCCCCCC(=O)*; Dab = NCC[C@H](N)C(=O)O

| COMPOUND | TEST_TARGET | MIC |
| --- | --- | --- |
| CCCCCCCC(=O)N[C@@H](C(=O)N[C@H](CCN)C(=O)NCC(=O)N[C@H](CO)C(=O)N[C@H](Cc1c[nH]c2ccccc12)C(=O)N[C@@H](CO)C(=O)N[C@@H](CCN)C(=O)N[C@H](CCN)C(=O)N[C@H](C(=O)N[C@@H](CCC(=O)O)C(=O)N[C@H](C(=O)N[C@@H](C(=O)N[C@@H](C)C(=O)O)[C@@H](C)CC)C(C)C)C(C)C)C(C)C [Oct-Val9] (Octanoyl-[dV][dDab]G[dS][dW]S[Dab][dDab]VEV[d(aIle)]A-OH) | ATCC 25922 | >64 µg/mL |
| CCCCCCCC(=O)N[C@@H](C(=O)N[C@H](CCN)C(=O)NCC(=O)N[C@H](CO)C(=O)N[C@H](Cc1c[nH]c2ccccc12)C(=O)N[C@@H](CO)C(=O)N[C@@H](CCN)C(=O)N[C@H](CCN)C(=O)N[C@@H](CCC(=O)O)C(=O)N[C@@H](CCC(=O)O)C(=O)N[C@H](C(=O)N[C@@H](C(=O)N[C@@H](C)C(=O)O)[C@@H](C)CC)C(C)C)C(C)C [Oct-Glu9] (Octanoyl-[dV][dDab]G[dS][dW]S[Dab][dDab]EEV[d(aIle)]A-OH) | ATCC 25922 | >64 µg/mL |
| CCCCCCCC(=O)N[C@@H](C(=O)N[C@H](CCN)C(=O)NCC(=O)N[C@H](CO)C(=O)N[C@H](Cc1c[nH]c2ccccc12)C(=O)N[C@@H](CO)C(=O)N[C@@H](CCN)C(=O)N[C@H](CCN)C(=O)N[C@@H](Cc1c[nH]cn1)C(=O)N[C@@H](CCC(=O)O)C(=O)N[C@H](C(=O)N[C@@H](C(=O)N[C@@H](C)C(=O)O)[C@@H](C)CC)C(C)C)C(C)C [Oct-His9] (Octanoyl-[dV][dDab]G[dS][dW]S[Dab][dDab]HEV[d(aIle)]A-OH) | ATCC 25922 | >64 µg/mL |
